Assign TGI to each entry below.
System: T-47D breast
Assay: NCI tumour cell line growth inhibition, 48 h

input: Checklist item: TGI tested on T-47D breast, entry COc1ccc(-c2nc3sc4c(c3c(=O)[nH]2)CCCC4)c2ccccc12 , value?
output: > 100 µM

input: Input COc1ccc(C2=C(c3cc(OC)c(OC)c(OC)c3)C(=O)OC2)cc1OC
output: > 100 µM

input: Input N#C[C@H]1Nc2ccccc2[C@@H](O)C1O (stereo partly specified)
output: > 100 µM

input: Input O=C(O)/C=C/C(=O)O
output: > 100 µM

input: Input COc1cc(C(SCc2ccccc2)SCc2ccccc2)ccc1O
output: > 10 µM

input: Input c1ccc(C2=C(c3ccccc3)P(c3ccccc3)C2)cc1 (stereo unspecified)
output: > 100 µM

----------
Assign GI50 to each entry below.
System: MDA-MB-231 breast
Assay: NCI tumour cell line growth inhibition, 48 h

input: Data request, read-out GI50, for Oc1cc(Cl)ccc1Cc1ccc(Cl)cc1O
output: 11.6 µM

input: Input Cc1ccc(/C(=C/C=C(C#N)C#N)Sc2ccccn2)cc1
output: 2.3 µM

input: Input NC1=NC(c2ccc(F)cc2)C2=C(N1)c1ccc3ccccc3c1OCC2 (centres undefined)
output: 47.4 µM

input: Input N/C(=N\c1nc2ccccc2s1)NC(=O)Nc1cccc2ccccc12
output: 0.636 µM

----------
Test system: M14 melanoma
Experiment: NCI tumour cell line growth inhibition, 48 h; in the data active means GI50 below about 0.43 µM; inactive means the rest
Entry note: the call must match one of TRUE = active, FALSE = inactive

input: Record lookup: outcome of this test for COc1cc2ncn(-c3cc(OCc4ccccc4S(C)(=O)=O)c(C#N)s3)c2cc1OC ?
output: FALSE

input: Input Cc1cc(NC(=O)NC(=O)c2ccccc2NC(=O)CN)ccc1Oc1ncc(Br)cn1
output: TRUE

input: Input Nc1ccc(-n2c(=O)oc3ccc(Cl)cc3c2=O)c(Cl)c1
output: TRUE

input: Input COc1ccc(-n2c(C)nc3c(c(C)nn3-c3ccccc3)c2=O)cc1
output: TRUE

input: Input CN(C)CC(NC(NCS)C(=O)NCCNc1ccc(NCCNC(=O)C(NCS)NC(CN(C)C)OCCl)c2c1C(=O)c1c(O)ccc(O)c1C2=O)OCCl (stereo not given)
output: FALSE

input: Input COc1cc2c(cc1OC)-c1c(c3ccc([N+](=O)[O-])cc3c(=O)n1CCCN)C2=O
output: TRUE

input: Input N/C(=N\c1nc2ccccc2s1)NC(=O)Nc1cccc2ccccc12
output: TRUE

input: Input CCC(=O)c1ccc2c(c1)N(CCCN1CCN(CCO)CC1)c1ccccc1S2
output: FALSE

input: Input CC1(C)[C@@H]2C[C@H]1C(Cc1cccc(C[C@H]3c4cc(-c5ccccn5)ncc4[C@H]4C[C@@H]3C4(C)C)c1)c1cc(-c3ccccn3)ncc12 (stereo not given in full)
output: FALSE

input: Input CCC[CH2][Sn]1([CH2]CCC)[O]C(=O)CN=Cc2ccccc2[O]1
output: TRUE

----------
Assign TGI to each entry below.
Test system: DU-145 prostate
Assay: NCI tumour cell line growth inhibition, 48 h
A number alone suffices; assume µM.

input: Data request, read-out TGI, for CC[C@@]1(O)C(=O)OCc2c1cc1n(c2=O)Cc2cc3c(NC(=O)CN)cccc3nc2-1
output: 1.98

input: Input Cc1ccc(C[P+](c2ccccc2)(c2ccccc2)c2ccccc2)cc1
output: 43.4

input: Input O=C(/C=C\c1ccc2ccccc2n1)c1cc(Cl)ccc1O
output: 19.4

input: Input CN1C(=O)C(c2c[nH]c3ccccc23)=C(c2c(-c3c[nH]c4ccccc34)[nH]c3ccccc23)C1=O
output: 12.2

input: Input CCC(C)C1(O)OC2CC3(C)OC(=CC3=O)/C(C)=C\C3OC(=O)C1(C)C32 (centres undefined)
output: 17

input: Input NC(N)=N/N=C/c1c(-c2ccc(Cl)c([N+](=O)[O-])c2)nc2ccccn12
output: 5.6
